From: paper PMC5821946

test system: neopterin formation by GTP-cyclohydrolase 1 (GTP-CH-I) in PBMC; assay: Neopterin formation in PBMC supernatants (ELISA) after 48 h treatment; type: cell-based, human; details: PHA-stimulated PBMC; data not shown; insufficient repetitions for (1) and (3)
MEASURED PROPERTY: Inhibition of neopterin formation (in words)

{"columns": ["SMILES CODE", "VALUE OBSERVED"],
 "data": [
  ["C=C1[C@@H](C)CC[C@]2(C)c3c(O)c(OC)c(C(C)C)c(O)c3C(=O)C[C@@H]12", "minor"],
  ["COc1c(O)c2c(c(O)c1C(C)C)C(=O)C[C@H]1C(C)(C)CCC[C@]21C", "no dose-dependent effect"],
  ["COC1=C(C(C)C)C(=O)c2c(O)cc3c(c2C1=O)C=CC(=O)C3(C)C", "no dose-dependent effect"]
]}
